biological target: T1, hNPR1-mFc:hBNP complex (human, UniProt P16860 103-134); assay: SPR, mAb captured, 25C
T1 construct: also called human NPR1 complexed to BNP
Each entry below carries its reported 100 nM Ag Bound (RU).
Answer in RU, number only, no unit symbol.

Reference set, count: 8
| binder | measured value |
| --- | --- |
| mAb22809 (antibody, human IgG4, V domains shown) VH: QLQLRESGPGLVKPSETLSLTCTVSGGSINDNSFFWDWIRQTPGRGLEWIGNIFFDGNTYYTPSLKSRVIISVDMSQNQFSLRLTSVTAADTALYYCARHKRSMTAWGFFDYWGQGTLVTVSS VL: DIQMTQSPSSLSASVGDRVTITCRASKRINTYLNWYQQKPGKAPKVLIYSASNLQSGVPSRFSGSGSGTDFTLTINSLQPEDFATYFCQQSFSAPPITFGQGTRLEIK | 51 |
| mAb25491 (antibody, human IgG4, V domains shown) VH: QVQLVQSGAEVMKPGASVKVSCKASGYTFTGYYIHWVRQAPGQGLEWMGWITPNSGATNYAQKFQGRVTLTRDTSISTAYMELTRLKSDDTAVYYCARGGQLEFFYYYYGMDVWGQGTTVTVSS VL: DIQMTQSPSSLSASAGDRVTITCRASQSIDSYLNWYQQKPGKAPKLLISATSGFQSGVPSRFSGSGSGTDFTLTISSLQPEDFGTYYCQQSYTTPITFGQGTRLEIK | 72 |
| mAb25508 (antibody, human IgG4, V domains shown) VH: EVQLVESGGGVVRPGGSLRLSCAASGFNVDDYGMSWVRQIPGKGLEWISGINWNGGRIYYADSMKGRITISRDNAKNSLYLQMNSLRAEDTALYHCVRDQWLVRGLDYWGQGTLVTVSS VL: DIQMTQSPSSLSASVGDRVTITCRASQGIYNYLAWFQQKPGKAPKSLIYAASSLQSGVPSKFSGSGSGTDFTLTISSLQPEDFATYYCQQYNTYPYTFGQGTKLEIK | 200 |
| mAb22805 (antibody, human IgG4, V domains shown) VH: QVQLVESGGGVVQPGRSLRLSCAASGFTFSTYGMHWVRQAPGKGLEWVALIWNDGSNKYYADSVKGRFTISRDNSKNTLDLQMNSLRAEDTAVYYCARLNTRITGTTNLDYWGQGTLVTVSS VL: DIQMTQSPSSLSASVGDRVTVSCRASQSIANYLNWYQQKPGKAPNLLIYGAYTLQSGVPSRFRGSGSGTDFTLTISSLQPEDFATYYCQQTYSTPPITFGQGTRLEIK | 84 |
| mAb25502 (antibody, human IgG4, V domains shown) VH: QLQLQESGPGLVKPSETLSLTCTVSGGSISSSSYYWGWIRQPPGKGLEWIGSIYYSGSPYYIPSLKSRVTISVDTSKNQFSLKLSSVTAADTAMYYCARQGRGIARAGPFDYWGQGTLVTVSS VL: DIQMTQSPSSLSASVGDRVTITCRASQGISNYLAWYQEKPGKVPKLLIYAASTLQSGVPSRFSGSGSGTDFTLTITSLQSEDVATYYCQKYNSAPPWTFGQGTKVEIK | 78 |
| mAb22033 (antibody, human IgG4, V domains shown) VH: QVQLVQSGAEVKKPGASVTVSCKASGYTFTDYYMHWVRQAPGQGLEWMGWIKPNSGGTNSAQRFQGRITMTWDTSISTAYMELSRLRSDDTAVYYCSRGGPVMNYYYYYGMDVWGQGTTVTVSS VL: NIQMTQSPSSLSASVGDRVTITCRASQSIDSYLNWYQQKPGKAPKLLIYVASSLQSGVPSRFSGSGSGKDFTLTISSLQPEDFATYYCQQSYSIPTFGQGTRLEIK | 85 |
| mAb25497 (antibody, human IgG4, V domains shown) VH: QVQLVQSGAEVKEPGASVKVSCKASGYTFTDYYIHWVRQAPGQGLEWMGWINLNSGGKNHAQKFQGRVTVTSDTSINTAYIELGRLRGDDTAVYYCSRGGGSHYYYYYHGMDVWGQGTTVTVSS VL: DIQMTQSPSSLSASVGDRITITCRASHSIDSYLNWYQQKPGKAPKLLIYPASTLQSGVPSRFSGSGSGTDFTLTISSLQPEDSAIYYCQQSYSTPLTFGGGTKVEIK | 59 |
| mAb22035 (antibody, human IgG4, V domains shown) VH: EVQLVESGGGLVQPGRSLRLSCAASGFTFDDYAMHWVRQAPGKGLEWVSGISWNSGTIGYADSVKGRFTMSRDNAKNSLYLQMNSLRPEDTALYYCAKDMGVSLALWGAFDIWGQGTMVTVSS VL: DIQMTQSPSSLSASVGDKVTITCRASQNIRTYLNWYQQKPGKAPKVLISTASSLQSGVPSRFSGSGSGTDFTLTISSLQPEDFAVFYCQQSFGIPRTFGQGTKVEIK | 194 |

# input for lookup
Any idea what its 100 nM Ag Bound (RU) is? The binder is mAb25479 (antibody, human IgG4, V domains shown) VH: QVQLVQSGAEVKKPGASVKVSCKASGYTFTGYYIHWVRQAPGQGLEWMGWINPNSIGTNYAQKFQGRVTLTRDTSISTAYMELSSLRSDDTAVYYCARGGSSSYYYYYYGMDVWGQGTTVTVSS VL: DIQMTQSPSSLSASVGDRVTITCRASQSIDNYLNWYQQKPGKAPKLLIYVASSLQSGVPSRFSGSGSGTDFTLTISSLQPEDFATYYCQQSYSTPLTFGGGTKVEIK
50
